# Target Or System: glucocorticoid receptor (GR) (Homo sapiens)
# Sequence (P04150 1-777): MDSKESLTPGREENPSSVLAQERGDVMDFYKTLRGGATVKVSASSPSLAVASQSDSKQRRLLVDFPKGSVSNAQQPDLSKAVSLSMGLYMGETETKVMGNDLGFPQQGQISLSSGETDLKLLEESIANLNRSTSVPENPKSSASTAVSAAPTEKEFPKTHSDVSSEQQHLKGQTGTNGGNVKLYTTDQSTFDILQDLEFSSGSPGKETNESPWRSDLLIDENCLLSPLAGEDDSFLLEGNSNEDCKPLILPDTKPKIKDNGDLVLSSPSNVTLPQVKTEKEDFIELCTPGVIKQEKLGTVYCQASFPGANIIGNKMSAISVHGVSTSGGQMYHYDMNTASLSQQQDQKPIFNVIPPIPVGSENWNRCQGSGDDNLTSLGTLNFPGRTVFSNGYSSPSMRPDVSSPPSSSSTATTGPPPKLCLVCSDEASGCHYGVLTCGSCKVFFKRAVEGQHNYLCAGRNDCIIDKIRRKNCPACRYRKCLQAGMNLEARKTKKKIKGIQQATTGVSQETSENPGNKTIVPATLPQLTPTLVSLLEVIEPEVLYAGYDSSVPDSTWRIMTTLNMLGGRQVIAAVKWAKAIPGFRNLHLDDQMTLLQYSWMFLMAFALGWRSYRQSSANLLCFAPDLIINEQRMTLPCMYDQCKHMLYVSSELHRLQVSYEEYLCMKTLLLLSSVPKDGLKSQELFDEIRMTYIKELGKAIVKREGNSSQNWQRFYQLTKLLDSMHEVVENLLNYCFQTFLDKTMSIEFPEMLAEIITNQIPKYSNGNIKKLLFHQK
# Test: GR-EFC nuclear translocation assay
# Type: cell-based
# Condition Parameters: log10 of qEC50 in M, printed as negative values; class 4 values are fit defaults
Experimental Readout: log qEC50

C[C@@]12C[C@@H](O)[C@H]3[C@@H](CCC4=CC(=O)CC[C@]43C)[C@H]1CC[C@H]2C(=O)CO [NCGC00016214-01] ... −7.782
CC(=O)O[C@]1(C(C)=O)CC[C@H]2[C@@H]3C=C(C)C4=CC(=O)CC[C@]4(C)[C@H]3CC[C@@]21C ... −7.254
CC(=O)OCC(=O)[C@@]1(OC(C)=O)[C@H](C)C[C@H]2[C@@H]3C[C@H](F)C4=CC(=O)C=C[C@@]4(C)[C@]3(F)[C@H](O)C[C@@]21C ... −7.111
C[C@]12C=CC(=O)C=C1CC[C@@H]1[C@H]3C[C@@H](O)[C@](O)(C(=O)CO)[C@@]3(C)C[C@H](O)[C@]12F ... −7.082

---

# Target Or System: UniProt:P04150
# Sequence (P04150 1-777): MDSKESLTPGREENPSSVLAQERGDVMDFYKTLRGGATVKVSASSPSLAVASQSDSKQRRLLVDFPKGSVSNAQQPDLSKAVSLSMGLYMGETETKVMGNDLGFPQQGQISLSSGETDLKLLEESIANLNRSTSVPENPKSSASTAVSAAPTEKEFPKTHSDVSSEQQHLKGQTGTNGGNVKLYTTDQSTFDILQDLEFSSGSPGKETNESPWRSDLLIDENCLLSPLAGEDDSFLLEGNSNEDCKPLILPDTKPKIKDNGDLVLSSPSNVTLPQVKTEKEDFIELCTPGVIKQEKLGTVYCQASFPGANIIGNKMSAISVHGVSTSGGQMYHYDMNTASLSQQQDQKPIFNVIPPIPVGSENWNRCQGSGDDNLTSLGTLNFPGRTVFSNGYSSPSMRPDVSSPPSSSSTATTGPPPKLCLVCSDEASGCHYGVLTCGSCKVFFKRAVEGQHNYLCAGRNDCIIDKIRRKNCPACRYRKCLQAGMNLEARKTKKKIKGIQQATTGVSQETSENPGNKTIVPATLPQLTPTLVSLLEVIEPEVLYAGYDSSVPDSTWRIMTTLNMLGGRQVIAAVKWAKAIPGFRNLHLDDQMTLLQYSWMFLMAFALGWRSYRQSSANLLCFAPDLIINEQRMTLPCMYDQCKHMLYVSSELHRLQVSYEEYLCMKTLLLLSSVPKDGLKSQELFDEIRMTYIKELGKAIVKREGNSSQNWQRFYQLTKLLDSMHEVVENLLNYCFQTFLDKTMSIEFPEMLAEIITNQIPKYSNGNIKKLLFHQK
# Test: GR-EFC nuclear translocation assay
# Format: cell-based
# Condition Parameters: read-out: qEC50; qHTS curve fit; class 4 values are fit defaults
Experimental Readout: EC50

C[C@]12CC[C@@H]3c4ccc(O)cc4CC[C@H]3[C@@H]1CC[C@@H]2OC(=O)CCC1CCCC1 ... > 9 µM

Enter reported EC50 observed with UniProt:P04150 for "C[C@@]12CCC(=O)C=C1CC[C@@H]1[C@@H]2[C@H](O)C[C@]2(C)[C@@H]1CC[C@]2(O)C(=O)COC(=O)CCC(=O)[O-].[Na+]"
1.12 µM

Request: "C[C@@]12CC[C@H]3[C@@H](CC=C4C[C@H](OS(=O)(=O)O)CC[C@]43C)[C@H]1CCC2=O"
> 9 µM

---

# Target Or System: glucocorticoid receptor (GR) (Homo sapiens, UniProt P04150)
# Test: GR-EFC nuclear translocation assay
# Format: cell-based
# Condition Parameters: read-out: qEC50
Experimental Readout: EC50

Observe how each entry below is paired with its result.
CC(=O)O[C@H]1C[C@@]2(C)[C@@H](C[C@@H](O)[C@H]3[C@@]4(C)CC[C@@H](O)[C@@H](C)[C@@H]4CC[C@@]32C)/C1=C(\CCC=C(C)C)C(=O)[O-].[Na+] ... > 9 µM
CC[C@@H]1Cc2cc(O)ccc2C2=C1c1ccc(O)cc1C[C@H]2CC ... > 9 µM

We next turn to a different compound, shown below.
# query: EC50 | item "C#C[C@@]1(OC(C)=O)CC[C@@H]2[C@@H]3CCC4=C[C@@H](OC(C)=O)CC[C@H]4[C@H]3CC[C@]21C" | system: glucocorticoid receptor (GR) (Homo sapiens, UniProt P04150)
> 9 µM

---

# Target Or System: glucocorticoid receptor (GR) (Homo sapiens)
# Test: GR-EFC nuclear translocation assay
# Type: cell-based
# Condition Parameters: maximal activity of the qHTS curve; inactive threshold […] (3σ)
Experimental Readout: qHTS Max Activity

Some molecules with recorded qHTS Max Activity:
C[C@@]12CCC(=O)C=C1CC[C@@H]1[C@@H]2[C@H](O)C[C@]2(C)[C@@H]1CC[C@]2(O)C(=O)CO [NCGC00015507-01] ... 123.7
C[C@H]1C[C@@H]2[C@H]([C@@H](O)C[C@@]3(C)[C@H]2CC[C@]3(O)C(=O)CO)[C@@]2(C)C=CC(=O)C=C12 ... 63.5
C[C@@]12C[C@@H](O)[C@H]3[C@@H](CCC4=CC(=O)CC[C@]43C)[C@H]1CC[C@H]2C(=O)CO [NCGC00016214-01] ... 37.8
C[C@@]12CCC(=O)C=C1CC[C@@H]1[C@@H]2[C@H](O)C[C@]2(C)[C@@H]1CC[C@]2(O)C(=O)CO [NCGC00016215-01] ... 60.7

P = CC(=O)O[C@]1(C(C)=O)CC[C@H]2[C@@H]3C=C(C)C4=CC(=O)CC[C@]4(C)[C@H]3CC[C@@]21C
Q = CC(=O)CC(=O)[C@@]1(O)CC[C@@H]2[C@@H]3C=C(C)C4=CC(=O)CC[C@@H]4[C@H]3CC[C@]21C
R = C[C@@]12CCC(=O)C=C1CC[C@@H]1[C@@H]2[C@H](O)C[C@]2(C)[C@@H]1CC[C@]2(O)C(=O)COC(=O)CCC(=O)[O-].[Na+]
Order the records, beginning with the lowest qHTS Max Activity and ending with the highest. Response format: the labels, sorted as the prompt asks.
Q, P, R

---

# Target Or System: UniProt:P04150
# Test: GR-EFC nuclear translocation assay
# Format: cell-based
# Condition Parameters: read-out: qEC50; qHTS curve fit; class 4 values are fit defaults
Experimental Readout: EC50

CC[C@H](CC[C@H](C)[C@@H]1CC[C@@H]2[C@H]3CC=C4C[C@@H](O)CC[C@]4(C)[C@H]3CC[C@]21C)C(C)C ... > 9 µM
C[C@@]12CC[C@@H]3c4ccc(O)cc4C[C@H](CCCCCCCCC[S+]([O-])CCCC(F)(F)C(F)(F)F)[C@H]3[C@@H]1CC[C@@H]2O (stereo partly drawn) ... > 9 µM
C[C@@]12CC[C@H]3[C@@H](CC[C@]4(O)C[C@H](O)CC[C@@]34C=O)[C@]1(O)CC[C@@H]2C1=CC(=O)OC1 ... > 9 µM
C#C[C@]1(O)CC[C@@H]2[C@H]3CCc4cc(OC)ccc4[C@@H]3CC[C@@]21C ... > 9 µM
CCC(=O)[C@@]1(C)[C@H](C)C[C@H]2[C@@H]3CCC4=CC(=O)C=C[C@]4(C)[C@H]3[C@@H](O)C[C@@]21C ... 0.00311 µM
C[C@H](CCC(=O)O)[C@H]1CC[C@@H]2[C@H]3CC[C@H]4C[C@@H](O)CC[C@@]4(C)[C@H]3CC[C@]21C ... > 9 µM
CC(=O)O[C@@H]1[C@H]([N+]2(C)CCCCC2)C[C@@H]2[C@@H]3CC[C@@H]4C[C@@H](OC(C)=O)[C@H]([N+]5(C)CCCCC5)C[C@@]4(C)[C@H]3CC[C@]21C ... > 9 µM
C[C@@]12CC[C@H](O)C[C@@H]1CC[C@H]1[C@H]2C[C@@H](O)[C@]2(C)[C@@H](C3=CC(=O)OC3)CC[C@@]12O ... > 9 µM
CC(=O)OCC(=O)[C@@]12OC(C)(C)O[C@@H]1C[C@H]1[C@@H]3C[C@H](F)C4=CC(=O)C=C[C@]4(C)[C@@]3(F)[C@@H](O)C[C@@]12C ... 0.0128 µM
CCC(=O)O[C@H]1CC[C@H]2[C@@H]3CCC4=CC(=O)CC[C@]4(C)[C@H]3CC[C@]12C ... > 9 µM

Entry under review: "C[C@@]12CC[C@H](O)C[C@@H]1CC[C@H]1[C@H]2CC[C@@]2(C)[C@@H](C3=CC(=O)OC3)CC[C@]12O" . Reported EC50?
> 9 µM

Now consider "CC1(C)O[C@@H]2C[C@H]3[C@@H]4C[C@H](F)C5=CC(=O)C=C[C@]5(C)[C@H]4[C@@H](O)C[C@]3(C)[C@]2(C(=O)CO)O1" and answer again.
0.00485 µM

Then "C[C@@H]1O[C@H](O[C@@H]2CC[C@@]3(C=O)[C@H]4CC[C@@]5(C)[C@@H](C6=CC(=O)OC6)CC[C@@]5(O)[C@@H]4CC[C@]3(O)C2)C[C@H](O)[C@@H]1O" ?
> 9 µM

Then this compound: "CC(=O)O[C@]1(C(C)=O)CC[C@H]2[C@@H]3C=C(C)C4=CC(=O)CC[C@]4(C)[C@H]3CC[C@@]21C"
0.0557 µM

And then "CC(=O)OCC(=O)[C@@]1(O)CC[C@H]2[C@@H]3CCC4=CC(=O)C=C[C@]4(C)[C@@]3(F)[C@@H](O)C[C@@]21C" , what is it?
0.035 µM

Next up: C[C@@]12C[C@@H](O)[C@H]3[C@@H](CCC4=CC(=O)CC[C@]43C)[C@H]1CC[C@H]2C(=O)CO [NCGC00015222-01]
0.179 µM

Item: "CC(=O)O[C@H]1C[C@H]2CC[C@@H]3[C@@H](CC[C@]4(C)[C@H](OC(C)=O)[C@H]([N+]5(C)CCCCC5)C[C@@H]34)[C@]2(C)C[C@H]1[N+]1(C)CCCCC1"
> 9 µM
